Here the recorded GI50 is given for each entry.
system: HuH28, a human liver cancer cell line

| compound | GI50 |
| --- | --- |
| Nc1cncc(OCC2CCC(F)(F)CC2)c1 | < 3000 nM |
| C=CC(=O)Nc1cncc(Oc2ccc(C(F)(F)F)cc2)c1 | < 3000 nM |
| C=CC(=O)Nc1cncc(Oc2ccnc(C(F)(F)F)c2)c1 | < 3000 nM |
| C=CC(=O)NC1CCOc2c1ccc(Oc1ccc(C(F)(F)F)cc1)c2OC (racemic) | < 3000 nM |

With those in mind, consider the next compound.
What reported GI50 corresponds to C=CC(=O)NCc1cc(Oc2ccc(C(F)(F)F)nc2)nc2ccccc12 on HuH28, a human liver cancer cell line?
< 3000 nM
